kd by entry:
- Experimental Target: huLTBP1 proTGFβ1 (Homo sapiens, UniProt P01137+Q14766)
- Sequence (P01137 30-390): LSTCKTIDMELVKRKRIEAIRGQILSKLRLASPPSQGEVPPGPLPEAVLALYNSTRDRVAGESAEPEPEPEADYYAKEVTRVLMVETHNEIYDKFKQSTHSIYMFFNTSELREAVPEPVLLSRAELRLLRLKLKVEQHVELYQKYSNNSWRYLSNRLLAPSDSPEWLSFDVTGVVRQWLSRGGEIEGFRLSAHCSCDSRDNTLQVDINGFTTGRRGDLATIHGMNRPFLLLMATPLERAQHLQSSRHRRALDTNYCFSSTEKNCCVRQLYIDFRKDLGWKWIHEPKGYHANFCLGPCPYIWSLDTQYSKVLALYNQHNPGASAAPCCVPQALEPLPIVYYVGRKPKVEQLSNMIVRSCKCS
- Sequence (Q14766 347-1721 limits assumed): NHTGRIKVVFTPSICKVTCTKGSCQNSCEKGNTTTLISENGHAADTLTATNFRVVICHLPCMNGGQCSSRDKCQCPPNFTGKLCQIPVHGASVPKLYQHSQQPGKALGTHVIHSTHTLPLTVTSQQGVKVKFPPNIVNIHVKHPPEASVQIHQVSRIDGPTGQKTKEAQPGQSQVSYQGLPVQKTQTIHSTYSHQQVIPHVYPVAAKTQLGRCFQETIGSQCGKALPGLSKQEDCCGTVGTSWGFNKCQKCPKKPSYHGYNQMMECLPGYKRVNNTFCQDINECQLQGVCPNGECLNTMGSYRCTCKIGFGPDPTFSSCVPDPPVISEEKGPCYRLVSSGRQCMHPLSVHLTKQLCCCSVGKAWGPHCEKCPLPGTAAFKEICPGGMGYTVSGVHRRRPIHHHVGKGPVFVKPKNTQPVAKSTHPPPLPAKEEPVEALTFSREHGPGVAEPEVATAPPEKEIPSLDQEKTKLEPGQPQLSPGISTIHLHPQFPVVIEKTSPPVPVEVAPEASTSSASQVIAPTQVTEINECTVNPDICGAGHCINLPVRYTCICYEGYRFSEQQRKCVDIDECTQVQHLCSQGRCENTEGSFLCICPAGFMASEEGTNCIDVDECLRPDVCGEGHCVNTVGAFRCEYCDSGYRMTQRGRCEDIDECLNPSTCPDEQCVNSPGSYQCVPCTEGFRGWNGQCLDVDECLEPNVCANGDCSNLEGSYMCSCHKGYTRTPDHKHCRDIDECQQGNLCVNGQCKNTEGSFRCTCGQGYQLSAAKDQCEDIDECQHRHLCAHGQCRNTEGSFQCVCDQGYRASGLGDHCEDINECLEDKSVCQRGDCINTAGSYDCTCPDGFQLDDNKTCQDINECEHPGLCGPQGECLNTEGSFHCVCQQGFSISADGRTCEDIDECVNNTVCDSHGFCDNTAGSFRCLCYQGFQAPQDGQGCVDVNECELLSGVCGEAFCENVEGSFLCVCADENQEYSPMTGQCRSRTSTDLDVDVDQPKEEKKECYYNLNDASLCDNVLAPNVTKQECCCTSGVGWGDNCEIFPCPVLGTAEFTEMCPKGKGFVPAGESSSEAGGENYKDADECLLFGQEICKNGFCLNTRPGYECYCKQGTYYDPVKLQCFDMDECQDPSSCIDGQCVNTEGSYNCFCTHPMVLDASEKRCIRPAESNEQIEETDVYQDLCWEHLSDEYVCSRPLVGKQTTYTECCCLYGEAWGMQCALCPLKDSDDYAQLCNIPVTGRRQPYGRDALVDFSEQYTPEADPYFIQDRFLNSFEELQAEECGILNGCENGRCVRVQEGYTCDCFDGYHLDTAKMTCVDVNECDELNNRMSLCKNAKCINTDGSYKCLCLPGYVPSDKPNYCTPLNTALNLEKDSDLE
- Experiment Description: SPR (Biacore 8K) monovalent binding kinetics of Fabs, biotinylated antigen captured
- Design: biotin (complex biotinylated)
- Assay Setup: Fab, huLTBP1 proTGFβ1; SR-AB42-HuFab average of five, SR-AB63-HuFab average of four replicate experiments
- Procedure: A Biacore 8K system was employed to determine the monovalent binding affinity and the kinetic parameters for antigen binding of test antibodies. Association and dissociation kinetics of Fab fragments SR-AB42-HuFab, SR-AB63-HuFab and SR-AB43-HuFab to antigen complexes were measured, and resulting ka, kd and KD are provided below. Briefly, the binding kinetics were evaluated by surface plasmon resonance using Biacore 8K (GE Healthcare). […]

Molecule: SR-AB59-HuFab (antibody, V domains shown) VH: QVQLVESGGGVVQPGRSLRLSCAASGFTFRSYVMHWVRQAPGKGLEWVAVISHEGSGKYYADSVKGRFTISRDNSKNTLYLQMNSLRAEDTAVYYCALPRIAARRGGFGTWGQGTLVTVSS VL: NFMLTQPHSVSESPGKTVTISCTRSSGNIDYNYVQWYQQRPGSSPTTVIYEDNVRPSGVPDRFSGSIDSSSNSASLTISGLKTEDEADYYCQSYDYDNQAVVFGGGTKLTVL
Result Units: s⁻¹
kd: 0.00013
--
Molecule: SR-AB61-HuFab (antibody, V domains shown) VH: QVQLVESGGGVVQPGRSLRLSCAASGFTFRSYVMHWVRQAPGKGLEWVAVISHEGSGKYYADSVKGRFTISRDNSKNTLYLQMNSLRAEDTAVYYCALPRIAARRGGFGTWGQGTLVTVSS VL: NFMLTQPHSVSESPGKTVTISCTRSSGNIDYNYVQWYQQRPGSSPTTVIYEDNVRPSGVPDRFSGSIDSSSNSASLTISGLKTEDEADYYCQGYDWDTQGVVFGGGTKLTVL
Result Units: s⁻¹
kd: 0.000155
--
Molecule: SR-AB60-HuFab (antibody, V domains shown) VH: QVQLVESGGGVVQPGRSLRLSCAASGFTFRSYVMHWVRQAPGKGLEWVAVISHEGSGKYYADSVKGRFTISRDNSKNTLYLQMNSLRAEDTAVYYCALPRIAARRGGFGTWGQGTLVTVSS VL: NFMLTQPHSVSESPGKTVTISCTRSSGNIDYNYVQWYQQRPGSSPTTVIYEDNVRPSGVPDRFSGSIDSSSNSASLTISGLKTEDEADYYCQSYDYDTQGVVFGGGTKLTVL
Result Units: s⁻¹
kd: 0.00012
--
Molecule: SR-AB46-HuFab (antibody, V domains shown) VH: QVQLVESGGGVVQPGRSLRLSCAASGFTFRSYVMHWVRQAPGKGLEWVAVISHEGSGKYYADSVKGRFTISRDNSKNTLYLQMNSLRAEDTAVYYCARPRIAARRGGFGSWGQGTLVTVSS VL: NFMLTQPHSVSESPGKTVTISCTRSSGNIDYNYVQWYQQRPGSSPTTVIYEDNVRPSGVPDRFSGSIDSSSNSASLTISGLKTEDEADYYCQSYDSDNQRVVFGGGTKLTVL
Result Units: s⁻¹
kd: 0.00011
--
Molecule: SR-AB42-HuFab: human Fab fragment of SR-AB42 used in SPR (antibody, V domains shown) VH: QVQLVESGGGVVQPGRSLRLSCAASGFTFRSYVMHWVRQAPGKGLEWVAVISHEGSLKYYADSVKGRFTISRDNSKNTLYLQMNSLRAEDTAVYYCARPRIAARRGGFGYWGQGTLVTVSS VL: NFMLTQPHSVSESPGKTVTISCTRSSGNIDNNYVQWYQQRPGSSPTTVIYEDNQRPSGVPDRFSGSIDSSSNSASLTISGLKTEDEADYYCQSYDYDTQGVVFGGGTKLTVL
Result Units: s⁻¹
kd: 0.000105
